Tested on: XF498
Experiment: NCI tumour cell line growth inhibition, 48 h
Activity calls are given as the source filed them. Cut-off read from the data, not from the text of the source: active = GI50 up to about 1.1 µM and inactive = higher.
observationType: GI50

The measured GI50 associated with CC(C)Cc1ccc(C(C)C(=O)N2CCN(/C=C/c3ccccc3)CC2)cc1 (stereo not given) reads 13.8 µM (inactive)

The measured GI50 associated with C/C(=N/NC(N)=S)C(CN1CCOCC1)C(C1=C(O)c2ccccc2OC1)c1ccccc1 (stereo not given) reads > 100 µM (inactive)

The measured GI50 associated with CS(=O)(=O)NNS(=O)(=O)c1ccc(Cl)cc1 reads > 100 µM (inactive)

The measured GI50 associated with O=[N+]([O-])c1ccc(-c2ccc(-c3csc(Nc4ccccc4)n3)o2)cc1 reads 18.4 µM (inactive)

The measured GI50 associated with COC(=O)C1=C(OC)c2cc3c(cc2C(c2cc(OC)c(OC)c(OC)c2)C1C(=O)OC)OCO3 (stereo not given) reads > 100 µM (inactive)

The measured GI50 associated with O=C[C@@H](CO)O[C@H](C=O)c1c[nH]c(=O)[nH]c1=O reads 24.7 µM (inactive)

The measured GI50 associated with O=C1c2ccccc2C(Br)(Br)c2ccccc21 reads 29.3 µM (inactive)

The measured GI50 associated with CCOC(=O)/C=C/n1c2ccccc2c(=O)c2cc(OC)ccc21 reads 48.5 µM (inactive)

The measured GI50 associated with CN(C)CC1(Cc2ccccc2)CC/C(=C\c2ccccc2)C1=O (stereo not given) reads 80.9 µM (inactive)

The measured GI50 associated with CCc1cccc(CC)c1NC(=O)C(C#N)C1=C(Cl)C(=O)c2ccccc2C1=O (stereo not given) reads 15.9 µM (inactive)
